# test description: Mouse intravenous (IV) pharmacokinetic study of plasma and brain exposure with bioanalysis
# Assay type: in vivo
# details: male, NMRI, mouse, plasma, iv, 1 mg/kg, plasma, mouse NMRI male, IV 1 mg/kg, mean n=3; read-out: t1/2 (converted)
measurement label: half-life (min)
Entry rule: numbers only, all in min.

Q: Dear colleague, I am looking for the recorded half-life of the following compound: CO[C@H]1CCCN(c2ccc(-c3cc4cc(O)ccc4[nH]3)c(F)n2)C1
Ans: 24

* * *

# test description: Mouse intravenous (IV) pharmacokinetic study of plasma and brain exposure with bioanalysis
# Type: in vivo
# details: plasma, mouse NMRI male, IV 1 mg/kg, mean n=3
measurement label: Vd (L/kg)
Supply the numeric figure in L/kg, leaving out any unit text.

Q: Any idea what its Vd is? The compound is CO[C@H]1CCCN(c2ccc(-c3cc4cc(O)ccc4[nH]3)c(F)n2)C1 [Example Compound 1]
Ans: 1.2
